Every entry's value here was drawn from the supplement of paper PMC9170038.

Tested on: MS2 coat protein
Assay: apparent KD of MS2 coat protein; designed switch direction (-1 OFF switch, 1 ON switch): 1; higher = weaker reporter binding
Settings: input ligand: none
Form field: apparent KD of MS2 coat protein (one value per entry).

Look over these answered cases.
* GAGUGGCAGUUAGGAUAUAUAGUGAUAAUCACAGUAGAAGGAACUGACAUGAGGAUCACCCAUGUAGGACUAAUCCAGAGAGAG [Parity 41 - Jieux - Same State NG 1] (Eterna round: R96, puzzle: Same State NG 1) | 0.0442 µM
* UGGUACAUGGGAGGAUAUCUCGUGGAGACAUGAGGAUCACCCAUGUAGAUGGCCGGUAACCGGAGAGAGAAGGCCCAUGUACCU [JL SSNG1 3.68] (Eterna round: R96, puzzle: Same State NG 2) | 0.159 µM
* CUUUUUCCUUUUACAUGAGGAUCACCCAUGUUUUCAUAUUGAGAGGAUAUCGUAUUUGGAAUUUUCGAGAAGGCUCAUUUGUAU [JR_SSNG3_Sub075] (Eterna round: R96, puzzle: Same State NG 3) | 0.0289 µM

Let us move to another entry and its apparent KD of MS2 coat protein.
Entry CCAACAUACAAUUUAAGAUCACAUGAGGAUCACCCAUGUAUGCAGGAUAUCAGCUCGUUUAGAGCUGAGAAGGGCAAUUUAAUU [SSNG3/1-A3] (Eterna round: R96, puzzle: Same State NG 3) : apparent KD of MS2 coat protein on MS2 coat protein = 0.202 µM

* * *

Form field: apparent KD of MS2 coat protein (one value per entry).
Test system: MS2 coat protein
Assay: apparent KD of MS2 coat protein; designed switch direction (-1 OFF switch, 1 ON switch): 1; higher = weaker reporter binding
Details: input ligand: FMN 200 uM
Number only, in nM; omit the unit.

• AAAGAAAACGCAGGAUAUCCCGGAAUGGAACCGGGAGAAGGGUGACCGGUACAUGAGGAUCACCCAUGUAGAGCAAAGGCUCAA [Oninqu] (Eterna round: R96, puzzle: Same State NG 1) = 78
• GAGUGGCAGUUAGGAUAUAUAGUGAUAAUCACAGUAGAAGGAACUGACAUGAGGAUCACCCAUGUAGGACUAAUCCAGAGAGAG [Parity 41 - Jieux - Same State NG 1] (Eterna round: R96, puzzle: Same State NG 1) = 65.7
• GUACAGAUCAGAGGAUAUCACGUCGAAUAGACGUGAGAAGGCUGAUCACACAUGAAUAUUAGUACAUGAGGAUCACCCAUGUAC [SSNG1/15-A1] (Eterna round: R96, puzzle: Same State NG 1) = 14.5

Reported apparent KD of MS2 coat protein ( UGACACACGGCAGGAUAUCGAUUGCAAAGCAAUCGAGAAGGGCCUCAUGUCGUGGAAACGUGACAUGAGGAUCACCCAUGUUGC [Omei SS(NG)1 Cv14] (Eterna round: R96, puzzle: Same State NG 1) ) = 178

Reported apparent KD of MS2 coat protein ( CCAACAUACAAUUUAAGAUCACAUGAGGAUCACCCAUGUAUGCAGGAUAUCAGCUCGUUUAGAGCUGAGAAGGGCAAUUUAAUU [SSNG3/1-A3] (Eterna round: R96, puzzle: Same State NG 3) ) = 99

* * *

Form field: apparent KD of MS2 coat protein (one value per entry).
Test system: MS2 coat protein
Assay: apparent KD of MS2 coat protein; designed switch direction (-1 OFF switch, 1 ON switch): -1; higher = weaker reporter binding
Conditions: input ligand: none
Number only, in nM; omit the unit.

Look over these answered cases.
- ACAUGAGGAUCACCCAUGUCGAGUACAUGAGGAUCACCCAUGUAGGAUAUGGUUCGCUUUGCGUGCUAGAAGGAUAUGUGUUGA [salish99_ExNG3_r04_510] (Eterna round: R96, puzzle: Exclusion NG 3): 226
- AGGUCCUUCUGGAGACAUGAGGAUCACCCAUGUCGAGUCAGCGAGGAUAUCGGUUAAUAAUGUGACGAGAAGGCGCGGACCGAU [Ex NG3 #55] (Eterna round: R96, puzzle: Exclusion NG 3): 13

Reported apparent KD of MS2 coat protein ( CCUACGUUGUAGGAUAUAGUGAUUUAUUAAUAUUUAGAAGGACAUACAUGAGGAUCACCCAUGUGAGUUGGGUG [Eternabot (L2) Solution 27] (Eterna round: R97, puzzle: Exclusion 6) ) = 674

* * *

Tested on: MS2 coat protein
Assay: apparent KD of MS2 coat protein, switch OFF state (with FMN for OFF switches, without FMN for ON switches); designed switch direction (-1 OFF switch, 1 ON switch): -1; higher = weaker reporter binding
Conditions: FMN input: 0 or 200 uM; Eterna round: R93 (includes R88 designs)
experimental.endpoint: apparent KD of MS2 coat protein (nM)
Number only, in nM; omit the unit.

Look over these answered cases.
* CUCAUGUUAGGAUAUUAAUGAAAUGAAGUGAAAGAAAAGAAUAAGAAGGAACAUGAGGAUCACCCAUGUUAGAA [EteRNA is fun!] | 25.2
* AGGAAACAUGAGGAUCACCCAUGUAAGGAUAUCAGAAAGAAAAGAAAAGAAAGAAGAAUGAGAAGGUACAAGAA [Horus Bird] | 34
* CGCAAGUCAGGAUAUUCGACAAGUAAAUCAGUAGAUCAGAAGAAGAAGGGACAUGAGGAUCACCCAUGUAAGUA [JR_Exc004_Sub404] | 26.3
* AAGAACUCAGGAUAUACAUGAGGAUCACCCAUGUAAAAGAAAGAAAGGGAAAAGAAAAGUAGAAGGGAGAAGAA [Hedjkheperre-setpenre Nesbanebdjed] | 34.3
* AAAAAGUGAGGAUAUUCGGAAGGGAAAGCGCAAACCCAACCGAAGAAGGCACAUGAGGAUCACCCAUGUGAAAA [Ecls4-III 65% - Early + late G segment 1] | 33

Reported apparent KD of MS2 coat protein ( AAAAAACAUGAGGAUCACCCAUGUCAGGAUAUGCUCAGCAAUAUUCCAAUAAAGAACGGUAGAAGGGACAGGAA [Bilbo Confounded 24 - Jieux - Exclusion 1] ) = 26.6

* * *

Test system: MS2 coat protein
Assay: apparent KD of MS2 coat protein; designed switch direction (-1 OFF switch, 1 ON switch): 1; higher = weaker reporter binding
Details: input ligand: microRNA oligo, concentration not stated
experimental.endpoint: apparent KD of MS2 coat protein (nM)
Number only, in nM; omit the unit.

- GCUCGACUGAUGGCCUACAUGAGGAUCACCCAUGUGAUUGGGCAGGAUAUCUAGAUGCAGGAUGUAGAGAAGGGCCUGUCGAGC [SameState NG3 #44] (Eterna round: R96, puzzle: Same State NG 3): 194
- UUACUCAUGUAAGGAUAUGCAGCCGUUUCGGCUGCAGAAGGUACUAUAAUACAUGAGGAUCACCCAUGUCUUUUUAAUUUAGAC [JL SSNG1 1.29] (Eterna round: R96, puzzle: Same State NG 1): 30.7

Reported apparent KD of MS2 coat protein ( UAUUUAAUCAUAGGAUAUAGUGUGAAAUUUGGACUAGAAGGAUGUAACAUGAGGAUCACCCAUGUGGUAAGUGGGACACAUUGA [JR_SSNG1_Sub097] (Eterna round: R96, puzzle: Same State NG 1) ) = 86.7

* * *

Test system: K4 kissing-loop RNA reporter;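 also: bound reporter read as fluorescence of individual clusters on recovered sequencing chips by microscopy, with normalized cluster intensities fitted with a binding model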
Experiment: apparent KD of K4 kissing-loop reporter; higher = weaker reporter binding
Settings: Eterna round: R107; input ligand: arginine 13.2 mM
Entry flag: yes (1) if apparent KD of K4 kissing-loop reporter reaches 100 nM; no (0) if it does not.

Examples from the recorded data:
• GUAUAUCGAACUGAUACCAGAGAAUAAAGCAGUGAUGUUGCAUAUAUAAAUAAGACUCGACUCCCUUGGCAGCGGGAAGAUAUAC [On purpose 1] = yes (1)
• CAAAUAAAUAUAAUUGAUAAGUGAUGUUGGCGAGGACCGGUACGGCCGCCACUCGAUAUCGGUCCAUUAACCGAGUGAUGUUUGG [Default title] = no (0)
• UCUGAAUUAUCUGAUACCAGACUUUUUGUAUUUAUUAAAACUAGUGAUGUUAGUUUAUCUGUCCCUUGGCAGCAGUUUCUACAGA [JR_Nu_ExcTheophyB_Sub022] = no (0)
• AGACUACCACACUGUCAAUAGACAGUGAGGUAGGAUAUGCUGAAAAGCAGAAGGACCAGUGAUGUUGGUAGGUAGUCAAAAUAAA [FmnAX 11 #SwitchBubble #StaticStem #K4Early] = yes (1)
• UCCUGCAAUCUGCCACGAAAGUGGAUUGAUACCAGAGUCGAAAGACUCCCUUGGCAGCGAGUGAUGUUCGAAGCAGGUAAAUAAA = yes (1)

query: // inclusive: apparent KD of K4 kissing-loop reporter at least 100 nM? input: UUUUAAAUGUCUGAUACCAGAGAAAAUAUAUGUAGUGAUGUUAUAUACAAAUUUAAUAAGCUCCCUUGGCAGCAGUAUGAAUUUU [AstrosExc-TheB#12]
result: yes (1)
